Item-by-item account of viability, T/C
Test system: 313798-341-R-J2-PDC spheroids, viability;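 note: spheroids exposed to compounds for seven days; 100% = DMSO vehicle control viability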
Measurement description: Anticancer human tumor 313798-341-R-J2-PDC patient-derived cervical squamous cell carcinoma cell line growth inhibition [PI3K]
Condition info: second compound 10 µM; first compound 0.316 µM; hits give low values; spheroids with HUVEC and MSC
Property measured: viability, T/C (%)

Molecule	Result number
Cn1nccc1Nc1nccc(-c2ccn(C(CO)c3ccc(Cl)c(F)c3)c(=O)c2)n1 (stereo unspecified) + CC(Nc1ncnc2nc[nH]c12)c1cc2cccc(Cl)c2c(=O)n1-c1ccccc1	77.8
CC(Cn1ccc(-c2ccc(C#N)c(Cl)c2)n1)NC(=O)c1cc(C(C)O)[nH]n1 (stereo unspecified) + Cc1nc(NC(=O)N2CCCC2C(N)=O)sc1-c1ccnc(C(C)(C)C(F)(F)F)c1	39.3
C[C@@H](NC(=O)c1ncnc(N)c1Cl)c1ncc(C(=O)Nc2cc(C(F)(F)F)c(Cl)cn2)s1 + CC(Nc1ncnc2nc[nH]c12)c1cc2cccc(Cl)c2c(=O)n1-c1ccccc1	82.8
CNC(=O)c1ccc(N2C(=S)N(c3ccc(C#N)c(C(F)(F)F)c3)C(=O)C2(C)C)cc1F + CC(Nc1ncnc2nc[nH]c12)c1cc2cccc(Cl)c2c(=O)n1-c1ccccc1	85.5
Cn1ncc(Cl)c1-c1cc(C(=O)NC(CN)Cc2cccc(F)c2)sc1Cl (stereo unspecified) + CC(Nc1ncnc2nc[nH]c12)c1cc2cccc(Cl)c2c(=O)n1-c1ccccc1	67.8
C#Cc1c(F)ccc2cc(O)cc(-c3ncc4c(N5CC6CCC(C5)N6)nc(OCC56CCCN5CC(F)C6)nc4c3F)c12 (stereo unspecified) + CC(Nc1ncnc2nc[nH]c12)c1cc2cccc(Cl)c2c(=O)n1-c1ccccc1	81
